tested-target: EGFR on the surface of human tumour cells (A431, H292) (human, UniProt P00533 25-1210)
measurement-protocol: cell-based or functional assay
Reported % inhibition of EGFR phosphorylation at 100 nM binder, cell-based assay values follow for various binders
recorded-endpoint: % inhibition of EGFR phosphorylation at 100 nM binder, cell-based assay (%)

{"binder": "E32 (designed binder) 10Fn3 domain: MGVSDVPRDLEVVAATPTSLLISWVSLVGFYQYYRITYGETGGNSPVQEFTVPGGVHTATISGLKPGVDYTITVYAVTDYKPHADGPHTYHESPISINYRTEIDKPSQ", "quantitative-result": 86}
{"binder": "E35 (designed binder) 10Fn3 domain: MGVSDVPRDLEVVAATPTSLLISWTPPGHQHQYYRITYGETGGNSPVQEFTVPGQVTTATISGLKPGVDYTITVYAVTDYYNPATHYYTYYTTPISINYRTEIDKPSQ", "quantitative-result": 90.2}
{"binder": "E40 (designed binder) 10Fn3 domain: MGVSDVPRDLEVVAATPTSLLISWVLGRRVYQYYRITYGETGGNSPVQEFTVPGAVYTATISGLKPGVDYTITVYAVTDYFNPATHEYQYELTPISINYRTEIDKPSQ", "quantitative-result": 89.6}
{"binder": "E36 (designed binder) 10Fn3 domain: MGVSDVPRDLEVVAATPTSLLISWESGSRTYQYYRITYGETGGNSPVQEFTVPGGVHTATISGLKTGVDYTITVYAVTDYKPHADGPHTYHEYPISINYRTEIDKPSQ", "quantitative-result": 81.3}
{"binder": "E38 (designed binder) 10Fn3 domain: MGVSDVPRDLEVVAATPTSLLISWNARTDAYQYYRITYGETGGNSPVQEFTVPRDLETATISGLKPGVDYTITVYAVTDYKPHADGPHTYQESPISINYRTEIDKPSQ", "quantitative-result": 89.8}
{"binder": "E45 (designed binder) 10Fn3 domain: MGVSDVPRDLEVVAATPTSLLISWQVPRPMYQYYRITYGEKGGNSPVQEFTVPHDLRTATISGLKPGVDYTITVYAVTDYYDPTSNLYNYNQTPISINYRTEIDKPSQ", "quantitative-result": 80.4}
{"binder": "E34 (designed binder) 10Fn3 domain: MGVSDVPRDLEVVAATPTSLLISWLAPFWRYQYYRITYGETGGNSPVQEFTVPGGVRTATISGLKPGVDYTITVYAVTDYKPHADGPHTYHESPISINYRTEIDKPSQ", "quantitative-result": 80.4}
{"binder": "E37 (designed binder) 10Fn3 domain: MGVSDVPRDLEVVAATPTSLLISWERTSTHYQYYRITYGETGGNSPVQEFTVPGRVYTATISGLKPGVDYTITVYAVTDYYNPATHEYKYHQTPISINYRTEIDKPSQ", "quantitative-result": 80.8}

Data origin: patent US20180037631A1
